Each recorded value in this set is attributed to ChEMBL document CHEMBL1165972.

- tgt: CYP2C9 (Homo sapiens)
- Sequence (P11712 whole entry): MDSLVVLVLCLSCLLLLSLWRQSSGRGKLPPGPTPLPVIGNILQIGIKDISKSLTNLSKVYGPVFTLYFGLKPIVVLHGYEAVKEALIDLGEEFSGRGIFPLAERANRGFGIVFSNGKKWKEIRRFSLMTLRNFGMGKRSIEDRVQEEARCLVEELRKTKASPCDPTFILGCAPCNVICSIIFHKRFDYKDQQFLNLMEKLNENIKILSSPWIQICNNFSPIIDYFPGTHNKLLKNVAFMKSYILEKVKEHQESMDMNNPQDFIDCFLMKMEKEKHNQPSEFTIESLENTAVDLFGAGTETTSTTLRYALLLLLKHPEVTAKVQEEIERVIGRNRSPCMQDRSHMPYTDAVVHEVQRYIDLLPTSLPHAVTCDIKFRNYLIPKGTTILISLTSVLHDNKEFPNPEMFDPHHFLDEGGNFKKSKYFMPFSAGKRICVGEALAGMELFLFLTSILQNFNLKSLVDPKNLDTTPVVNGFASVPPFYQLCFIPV
- protocol text: Inhibition of human recombinant CYP2C9 at 10 uM by spectrofluorimetry
- Assay type: ADME
endpoint label: inhibition at 10 µM (%)

P. CCCCOC(=O)NS(=O)(=O)c1sc(CC(C)C)cc1-c1ccc(Cn2cccn2)cc1
Q. CCCCOC(=O)NS(=O)(=O)c1sc(CC(C)C)cc1-c1ccc(C(=O)c2nccn2C)cc1
R. CCCCOC(=O)NS(=O)(=O)c1sc(CC(C)C)cc1-c1ccc(Cc2nccs2)cc1
In: Given 3 compounds, produce a descending ranking by inhibition at 10 µM. Your reply should list the labels following the order given in the request.
Out: R, Q, P
(R: 86%, Q: 38%, P: 23%)
